# MEASUREMENT DESCRIPTION: Pharmacokinetic profile in mice (Mouse PK)
# Format: in vivo
# RUN PARAMETERS: female, BALB/c, whole blood, 5 mg/kg, i.v. and p.o. at 5 mg/kg
ENDPOINT LABEL: clearance (mL/min/kg)
Reply numerically in mL/min/kg, unit not repeated.

**Q:** Item Cn1cc(C2=[N+](C(=O)OC(C)(C)C)c3cc(Nc4ccc(-c5nncn5C)cc4Cl)ncc3C2)cn1 [Comparator 1, reference compound] has what recorded clearance?
**A:** 5

* * *

# SYSTEM UNDER TEST: full length Mps1 (Homo sapiens)
# Sequence (P33981 1-857): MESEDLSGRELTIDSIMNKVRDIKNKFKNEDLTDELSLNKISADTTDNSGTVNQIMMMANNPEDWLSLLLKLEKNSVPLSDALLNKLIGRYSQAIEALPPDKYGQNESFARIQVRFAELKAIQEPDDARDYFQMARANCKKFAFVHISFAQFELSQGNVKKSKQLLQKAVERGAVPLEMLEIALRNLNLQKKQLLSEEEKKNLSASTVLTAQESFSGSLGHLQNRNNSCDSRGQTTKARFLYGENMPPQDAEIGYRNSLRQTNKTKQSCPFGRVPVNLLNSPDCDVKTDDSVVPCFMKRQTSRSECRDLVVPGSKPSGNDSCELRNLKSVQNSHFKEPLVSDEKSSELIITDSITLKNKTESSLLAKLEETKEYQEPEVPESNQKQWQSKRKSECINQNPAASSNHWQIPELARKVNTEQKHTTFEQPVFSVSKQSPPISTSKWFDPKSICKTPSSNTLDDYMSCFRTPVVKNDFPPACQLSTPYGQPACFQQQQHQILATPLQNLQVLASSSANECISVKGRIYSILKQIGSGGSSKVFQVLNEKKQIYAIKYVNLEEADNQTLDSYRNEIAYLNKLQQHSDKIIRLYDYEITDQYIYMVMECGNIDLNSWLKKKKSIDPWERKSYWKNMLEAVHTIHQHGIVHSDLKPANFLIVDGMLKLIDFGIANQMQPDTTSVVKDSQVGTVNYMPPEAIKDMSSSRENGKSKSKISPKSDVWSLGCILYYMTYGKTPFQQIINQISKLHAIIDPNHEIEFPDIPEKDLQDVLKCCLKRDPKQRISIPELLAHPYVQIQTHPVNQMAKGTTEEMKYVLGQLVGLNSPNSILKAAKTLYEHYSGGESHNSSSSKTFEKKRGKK
Recorded IC50 by entry

COc1cc(-c2nnnn2C)ccc1Nc1cc2c(cn1)cc(-c1cnn(C)c1)n2C(=O)OC(C)C [Example 2] ... 2.8 nM

**Q:** Item COc1cc(-c2cnnn2C)ccc1Nc1cc2c(cn1)cc(-c1cnn(C)c1)n2C(=O)OC(C)C [Example 1] has what recorded IC50?
**A:** 1.2 nM
